SYSTEM TESTED: glutaminase (brain membranes) (Rattus norvegicus, UniProt P13264)
Construct: Membranes are prepared by homogenization of brain tissue in 330 mM sucrose; from tissue; host or cells: rat brain, crude membranes (17000 G pellet)
Sequence (P13264 73-674 limits assumed): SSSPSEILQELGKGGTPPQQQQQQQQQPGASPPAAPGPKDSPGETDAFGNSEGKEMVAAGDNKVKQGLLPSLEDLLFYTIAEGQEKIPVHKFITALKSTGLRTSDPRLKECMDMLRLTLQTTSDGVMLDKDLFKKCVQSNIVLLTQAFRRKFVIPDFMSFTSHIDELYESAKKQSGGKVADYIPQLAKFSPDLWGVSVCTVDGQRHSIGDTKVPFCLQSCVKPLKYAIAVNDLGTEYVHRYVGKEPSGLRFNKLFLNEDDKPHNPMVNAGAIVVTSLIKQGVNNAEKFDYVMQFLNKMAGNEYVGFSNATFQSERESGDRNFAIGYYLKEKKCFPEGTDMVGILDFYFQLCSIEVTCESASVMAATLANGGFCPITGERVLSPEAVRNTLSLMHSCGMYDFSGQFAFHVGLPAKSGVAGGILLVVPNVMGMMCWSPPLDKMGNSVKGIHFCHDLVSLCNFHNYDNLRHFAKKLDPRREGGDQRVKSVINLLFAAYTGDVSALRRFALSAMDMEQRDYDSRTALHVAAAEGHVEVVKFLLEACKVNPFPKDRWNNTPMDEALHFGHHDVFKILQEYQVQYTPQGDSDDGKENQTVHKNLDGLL
ASSAY PROCEDURE: biochemical
EXPERIMENTAL CONTEXT: read-out: Glutaminase Activity
Non-standard residues stand in square brackets, D forms with d. Residues, ends and D or L forms follow the SMILES beside them.
Here, each record is paired with measured activity at 9000 µM data.

| MOLECULE | activity at 9000 µM |
| --- | --- |
| C[C@H](N)C(=O)N[C@@H](CCC(=O)O)C(=O)O [Ala--Glu] (H-Ala-Glu-OH) | 115% |
| CCOC(=O)CC[C@H](N)C(=O)O [L-glutamate-5-ethyl ester] | 92% |
| NC(CC(N)C(=O)O)C(=O)O (stereo not drawn) [2,4-diaminopentanedioic acid] | 103% |
| N[C@@H](Cc1ccc(O)cc1)C(=O)N[C@@H](CCC(=O)O)C(=O)O [Tyr--Glu] (H-Tyr-Glu-OH) | 118% |
| C[C@H](CC(=O)O)[C@H](N)C(=O)O (relative stereo) [(±)-threo-3-methylglutamate] | 7% |
| CNC(CCC(=O)O)C(=O)O (racemic) [N-methyl-DL-glutamate] | 124% |
| C[C@@H](CC(=O)O)[C@H](N)C(=O)O (relative stereo) [(±)-erythro-3-methylglutamate] | 18% |
| CC(CC(N)C(=O)O)C(=O)O (racemic) [(±)-threo-4-methylglutamate] | 100% |
| N[C@@H](CC(=O)O)C(=O)N[C@@H](CCC(=O)O)C(=O)O [Asp--Glu] (H-Asp-Glu-OH) | 32% |
| N[C@@H](CCC(=O)O)C(=O)NCC(=O)O [Glu--Gly] (H-Glu-Gly-OH) | 95% |
| CC(C)[C@H](NC(=O)[C@@H](N)CCC(=O)O)C(=O)O [Glu--Val] (H-Glu-Val-OH) | 116% |
| N=C(N)NCCC[C@H](N)C(=O)N[C@@H](CCC(=O)O)C(=O)O [Arg--Glu] (H-Arg-Glu-OH) | 118% |
| O=C(O)CC[C@H](NC(=O)OCc1ccccc1)C(=O)O [carbobenzoxy-Glu--OH] | 56% |
| N[C@@H](CCC(=O)O)C(=O)N[C@@H](CCC(=O)O)C(=O)O [Glu--Glu] (H-Glu-Glu-OH) | 141% |
| NCC(=O)N[C@H](CCC(=O)O)C(=O)O [Gly-D-Glu] (H-Gly-[dE]-OH) | 90% |

====

Listing of recorded activity at 3300 µM by entry.
SYSTEM TESTED: glutaminase (brain membranes) (Rattus norvegicus)
Construct: Membranes are prepared by homogenization of brain tissue in 330 mM sucrose; from tissue; host or cells: rat brain, crude membranes (17000 G pellet)
ASSAY PROCEDURE: biochemical
EXPERIMENTAL CONTEXT: read-out: Glutaminase Activity
Non-standard residues stand in square brackets, D forms with d. Residues, ends and D or L forms follow the SMILES beside them.
QUANTITY KIND: activity at 3300 µM (%)

| MOLECULE | RESULT NUMBER |
| --- | --- |
| CNC(CCC(=O)O)C(=O)O (racemic) [N-methyl-DL-glutamate] | 102 |
| O=C(O)CCCC(=O)O | 89 |
| N[C@@H](CC(=O)O)C(=O)N[C@@H](CCC(=O)O)C(=O)O [Asp--Glu] (H-Asp-Glu-OH) | 77 |
| NCC(=O)NCC(=O)N[C@@H](CCC(=O)O)C(=O)O [Gly--Gly--Glu] (H-Gly-Gly-Glu-OH) | 101 |
| N=C(N)NCCC[C@H](N)C(=O)N[C@@H](CCC(=O)O)C(=O)O [Arg--Glu] (H-Arg-Glu-OH) | 123 |
| N[C@@H](CO)C(=O)N[C@@H](CCC(=O)O)C(=O)O [Ser--Glu] (H-Ser-Glu-OH) | 104 |
| NCC(=O)N[C@H](CCC(=O)O)C(=O)O [Gly-D-Glu] (H-Gly-[dE]-OH) | 109 |
| N[C@@H](Cc1ccc(O)cc1)C(=O)N[C@@H](CCC(=O)O)C(=O)O [Tyr--Glu] (H-Tyr-Glu-OH) | 110 |
| N[C@@H](CCC(=O)O)C(=O)NCC(=O)O [Glu--Gly] (H-Glu-Gly-OH) | 94 |
| C[C@@H](O)[C@H](NC(=O)[C@@H](N)CCC(=O)O)C(=O)O [Glu--Thr] (H-Glu-Thr-OH) | 124 |
| COC(=O)CC[C@H](N)C(=O)O [L-glutamate-5-methyl ester] | 105 |
| C=C(CC(N)C(=O)O)C(=O)O (racemic) [γ-methylene-DL-glutamate] | 105 |
| N=CN[C@@H](CCC(=O)O)C(=O)O | 89 |
| O=C(O)CC[C@H](NC(=O)OCc1ccccc1)C(=O)O | 65 |
| CSCC[C@H](N)C(=O)N[C@@H](CCC(=O)O)C(=O)O [Met--Glu] (H-Met-Glu-OH) | 111 |
